experimentNotes: COS7 lysate on small-molecule microarray, probe aHis, 635 nm (AID 1123);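 note: z-score combines 667nm fluorescence intensity with signal-to-noise per printed compound spot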
experimentalSetup: COS7 cell lysate, fluorescence, higher = more signal
Classification by composite z-score follows these ranges: low group = under 0.4, middle group = from 0.4 up to 2, high group = 2 and over

# compound, cat
rows = [
    ("C=CCNC(=O)[C@H]1[C@@H]2C(=O)O[C@@H](c3ccccc3)[C@@H](c3ccccc3)N2[C@@H](c2ccc(O)cc2)[C@]12C(=O)Nc1ccc(C#CC3(O)CCCCCC3)cc12", "high group"),
    ("CC(C)N1C(=O)C[C@@](C(=O)NCCCN(C)C)(c2ccc([N+](=O)[O-])cc2)[C@H]1c1ccc(CO)cc1", "low group"),
    ("[N-]=[N+]=Nc1ccccc1[C@H]1OC(c2ccc(OCCCO)cc2)=N[C@@]1(CCS(=O)(=O)c1ccccc1)C(=O)NCCN1CCOCC1", "middle group"),
    ("O=C1O[C@H](c2ccccc2)[C@H](c2ccccc2)N2[C@H]1[C@@H](C(=O)Nc1nc3ccccc3s1)[C@]1(C(=O)Nc3ccc(C#CC4(O)CCCCCC4)cc31)[C@H]2c1ccccc1OCCO", "middle group"),
    ("COc1ccccc1CN1C(=O)c2ccccc2[C@@]2(Cc3ccccc3N(CC(F)(F)F)C2=O)[C@@H]1c1ccc(CO)cc1", "low group"),
    ("CCOC(=O)C[C@H]1[C@H](OC(=O)c2cc3ccccc3oc2=O)[C@@H](NC(=O)c2ccc(-c3ccccc3)cc2)c2cc(OCCCO)ccc2N1C(=O)c1ccc2ccccc2n1", "middle group"),
    ("CN(C)C(=O)[C@@]1(CCS(=O)(=O)c2ccccc2)N=C(c2ccc(OCCCO)cc2)O[C@H]1c1ccccc1", "high group"),
    ("C=CCN1C(=O)[C@@]2(O[C@@H](CCn3cc([C@H](O)c4ccccc4)nn3)[C@H]([Si](C)(C)c3ccc(OC)cc3)[C@H]2C)c2cc(N3CCC3=O)ccc21", "middle group"),
    ("C=CC[C@@]1(C(=O)N2CCOCC2)N=C(c2ccc(OCCCO)cc2)O[C@@H]1c1ccccc1CN=[N+]=[N-]", "high group"),
    ("O=C(NCC(F)(F)F)[C@@H]1c2ccccc2C(=O)N(Cc2ccccc2C(F)(F)F)[C@H]1c1ccc(CO)cc1", "middle group"),
    ("CN1C(=O)C2C=CC(C(O)c3ccccn3)N(N(c3ccccc3)c3ccccc3)C2C1=O (centres undefined)", "low group"),
    ("O=C1N(Cc2ccccc2)Cc2ccccc2[C@@H]2OC(c3ccc(OCCCO)cc3)=N[C@]12CCS(=O)(=O)c1ccccc1", "high group"),
    ("CCOC(=O)[C@H]1[C@@H]2C(=O)N3CCC[C@H]3[C@H](O[Si](C(C)C)(C(C)C)C(C)C)[C@H]2C=C2CCN(S(=O)(=O)c3ccc(C)cc3)C[C@H]21", "middle group"),
    ("O=C1C[C@@](C(=O)NCCN2CCOCC2)(c2ccc([N+](=O)[O-])cc2)[C@@H](c2ccc(CO)cc2I)N1C1CCCCC1", "middle group"),
    ("O=C1C2C=CC(C(O)c3ccc(Br)cc3)N(Nc3ccccc3F)C2C(=O)N1c1ccccc1 (centres undefined)", "middle group"),
    ("NC(=O)NCC#Cc1ccc2c(c1)[C@]1(C(=O)N2)[C@H](C(=O)O)[C@H]2C(=O)O[C@H](c3ccccc3)[C@H](c3ccccc3)N2[C@@H]1c1ccc(OCCO)cc1", "middle group"),
    ("CCOC(=O)C1CCCCN1 (centres undefined)", "middle group"),
    ("CCC[C@@H]1C[C@@]1(CCC)[C@@H](NC(=O)OCc1ccccc1)c1ccc(-c2ccccc2)cc1", "low group"),
    ("[N-]=[N+]=NCc1ccccc1C[C@@]1(C(=O)N2CCCCC2)N=C(c2ccc(OCCCO)cc2)O[C@@H]1c1ccccc1", "middle group"),
    ("N#Cc1ccc(C(O)C2C=CC3C(=O)N(c4ccccc4)C(=O)C3N2Nc2ccccc2)cc1 (centres undefined)", "middle group"),
    ("COc1cc(CO)cc(I)c1O[C@H]1C=C(C(=O)NCCO)C[C@@H](NCc2ccc(F)cc2)[C@@H]1O", "low group"),
    ("CC(=O)c1ccc(C(O)C2C=CC3C(=O)N(c4ccccc4)C(=O)C3N2Nc2ccc(C#N)cc2)cc1 (centres undefined)", "high group"),
    ("O=C(N1CCCCC1)[C@@]1(CCS(=O)(=O)c2ccccc2)COC(c2ccc(OCCCO)cc2)=N1", "high group"),
    ("CC(CO)N1C(=O)[C@@H]2[C@H]3C(=O)OCC=C[C@H]3OC23C=CCN(Cc2ccccc2)C(=O)[C@@H]13 (some centres undefined)", "low group"),
    ("O=C1NC(=O)C2C1C=CC(C(O)c1ccco1)N2Nc1ccccn1 (centres undefined)", "low group"),
    ("C[N+](C)(C)CCCC[C@@H]1NC(=O)[C@H]2C[C@@H](C(=O)NCCCCCCN)[C@@H](c3ccc(O)cc3)N2C1=O", "middle group"),
    ("C=C[C@@H](COC(C)=O)N(C(=O)OC(C)(C)C)S(=O)(=O)c1ccc(Br)cc1", "low group"),
    ("[N-]=[N+]=NCc1ccccc1[C@@H]1OC(c2ccc(OCCCO)cc2)=N[C@]1(CCS(=O)(=O)c1ccccc1)C(=O)NCC(O)CO (some centres undefined)", "high group"),
]
